Tested on: Escherichia coli ATCC 25922
MEASURED_METRIC: MIC (µM)

- MOLECULE: "CC[C@H](C)[C@H](NC(=O)[C@H](CC(C)C)NC(=O)[C@@H](NC(=O)[C@@H](N)CC(=O)O)[C@@H](C)CC)C(=O)N[C@H](C(=O)N[C@H](C(=O)NCC(=O)NCC(=O)N[C@@H](CCCN=C(N)N)C(=O)N[C@@H](CCCN=C(N)N)C(N)=O)C(C)C)[C@@H](C)CC [DILIIVGGRR]"
  EXPERIMENTAL_SYSTEM: "Escherichia coli ATCC 25922"
  UNITS_LABEL: "µM"
  RELATION_SYMBOL: ">"
  MEASURED_NUMBER: 64
- MOLECULE: "CC[C@H](C)[C@H](N)C(=O)N[C@@H](CC(N)=O)C(=O)N[C@@H](Cc1c[nH]c2ccccc12)C(=O)N[C@@H](CCCCN)C(=O)N[C@@H](CCCCN)C(=O)N[C@H](C(=O)N[C@@H](CCCCN)C(=O)N[C@@H](CCCCN)C(=O)N[C@@H](CCCCN)C(=O)N[C@H](C(=O)N[C@@H](C)C(=O)NCC(=O)N[C@@H](CCSC)C(=O)N[C@@H](CC(C)C)C(N)=O)C(C)C)[C@@H](C)CC [INWKKIKKKVAGML]"
  EXPERIMENTAL_SYSTEM: "Escherichia coli ATCC 25922"
  UNITS_LABEL: "µM"
  RELATION_SYMBOL: "="
  MEASURED_NUMBER: 9.66
